Where do the numbers come from? From ChEMBL document CHEMBL1697781.

Tested on: Hepatotoxicity
Experiment: FDA HLAED, serum glutamic pyruvic transaminase (SGPT) increase
Conditions: human
PROPERTY: SGPT Increase - Number of Reports

CC(c1cc2ccccc2s1)N(O)C(N)=O (stereo unspecified) [ZILEUTON] = >= 4
C[C@@H](CN1CC(=O)NC(=O)C1)N1CC(=O)NC(=O)C1 [DEXRAZOXANE] = < 4
CC(C)(C)NCC(O)COc1cccc2c1CCC(=O)N2 (stereo unspecified) [CARTEOLOL] = < 4
CC[N+](C)(C)Cc1ccccc1Br.Cc1ccc(S(=O)(=O)[O-])cc1 [BRETYLIUM TOSYLATE] = < 4
CCC(=O)OCC(=O)[C@@]1(OC(=O)CC)[C@H](C)C[C@H]2[C@H]3[C@H]([C@@H](O)C[C@@]21C)[C@@]1(C)C=CC(=O)C=C1C[C@H]3Cl [ALCLOMETASONE DIPROPIONATE] = < 4

Asked: Could you please provide reported SGPT Increase - Number of Reports for Cn1nnnc1SCC1=C(C(=O)O)N2C(=O)[C@@H](NC(=O)[C@H](O)c3ccccc3)[C@H]2SC1 [CEFAMANDOLE] ? Thanks!
Given back: < 4

Asked: Could you please provide reported SGPT Increase - Number of Reports for NC(N)=Nc1nc(CSCCC(N)=NS(N)(=O)=O)cs1 [FAMOTIDINE] ? Thanks!
Given back: >= 4

Asked: Could you please provide reported SGPT Increase - Number of Reports for C[C@](N)(Cc1ccc(O)cc1)C(=O)O [METYROSINE] ? Thanks!
Given back: < 4

Asked: Could you please provide reported SGPT Increase - Number of Reports for CC1(C)S[C@@H]2[C@H](NC(=O)[C@H](N)c3ccc(O)cc3)C(=O)N2[C@H]1C(=O)O [AMOXICILLIN] ? Thanks!
Given back: < 4
